# System: corn
# test: Foliar spread test for upland field
# Format: in vivo
# Design: key: 0: normal development; 1: Less damaged; 2: Slightly damaged; 3: Moderately damaged; 4: Severely damaged; 5: All killed
# reported conditions: foliar spray 500 ppm, 3 weeks, rank vs non-treated
measurement label: Effects Corn
Field format: numeric only.

For orientation, consider the following solved cases.
CCC(Oc1cccc(C(F)(F)F)c1)c1nc2cc([N+](=O)[O-])ccc2o1 (centres unmarked)	2
CCC(Oc1cccc(OC(F)(F)F)c1)c1nc2cc([N+](=O)[O-])ccc2o1 (centres unmarked)	3

Inquiry: Tell me the measured Effects Corn of CCCC(Oc1ccc(F)c(C(F)(F)F)c1)c1nc2cc(S(C)(=O)=O)c(C)cc2o1 (centres unmarked) , please.
Reply text: 1

Inquiry: Tell me the measured Effects Corn of CCC(Oc1cccc(C#N)c1)c1nc2cc(S(C)(=O)=O)c(C)cc2o1 (centres unmarked) , please.
Reply text: 1

====

# Test system: velvetleaf
# test: Foliar spread test for upland field
# Assay type: in vivo, Abutilon theophrasti
# Design: key: 0: normal development; 1: Less damaged; 2: Slightly damaged; 3: Moderately damaged; 4: Severely damaged; 5: All killed
# reported conditions: foliar spray 500 ppm, 3 weeks, rank vs non-treated
# Effects Velvetleaf values compiled below

For orientation, consider the following solved cases.
CCC(Oc1ccc(F)c(C(F)(F)F)c1)c1nc2ccc(C(F)(F)F)cc2o1 (centres unmarked)	2
CCCC(Oc1ccc(F)c(C(F)(F)F)c1)c1nc2cc(F)c(Cl)cc2o1 (centres unmarked)	2
CCC(Oc1ccc(Cl)c(C(F)(F)F)c1)c1nc2cc(C#N)c(Cl)cc2o1 (centres unmarked)	5
CCC(Oc1cccc(C(F)(F)F)c1)c1nc2cc(S(C)(=O)=O)c(C)cc2o1 (centres unmarked)	4

Let us move to another entry and its Effects Velvetleaf.
Inquiry: Tell me the measured Effects Velvetleaf of CCCC(Oc1cccc(C(F)(F)F)c1)c1nc2cc(C#N)c(C#N)cc2o1 (centres unmarked) , please.
Reply text: 3

====

# Test system: corn
# test: Soil treatment test for upland field
# Assay type: in vivo
# Parameters: key: 0: normal development; 1: Less damaged; 2: Slightly damaged; 3: Moderately damaged; 4: Severely damaged; 5: All killed
# reported conditions: 500 g/ha, glass house 25° C., 3 weeks
# Effects Corn values compiled below
Field format: numeric only.

CCCC(Oc1cccc(C(F)(F)F)c1)c1nc2cc(C#N)c(C#N)cc2o1 (centres unmarked)	2
CCC(Oc1cccc(C(F)(F)F)c1)c1nc2cc(C#N)c(C#N)cc2o1 (centres unmarked)	2
CCC(Oc1ccc(F)c(C(F)(F)F)c1)c1nc2cc(Cl)c(C)cc2o1 (centres unmarked)	2
CC(Oc1cccc(C(F)(F)F)c1)c1nc2ccc(C(F)(F)F)cc2o1 (centres unmarked)	0
CCC(Oc1cccc(C(F)(F)F)c1)c1nc2cc(C#N)ccc2o1 (centres unmarked)	2
CCC(Oc1cccc(C(F)(F)F)c1)c1nc2cc(I)ccc2o1 (centres unmarked)	0
CCC(Oc1cccc(OC(F)(F)F)c1)c1nc2cc(C#N)c(C#N)cc2o1 (centres unmarked)	2
CCC(Oc1ccc(F)c(C(F)(F)F)c1)c1nc2cc(Cl)ccc2o1 (centres unmarked)	2
CCC(Oc1ccc(F)c(C(F)(F)F)c1)c1nc2cc(Cl)c([N+](=O)[O-])cc2o1 (centres unmarked)	0
CC(Oc1cccc(C(F)(F)F)c1)c1nc2cc(Cl)ccc2o1 (centres unmarked)	0

Inquiry: Tell me the measured Effects Corn of CCC(Oc1cccc(C#N)c1)c1nc2cc(F)c(Cl)cc2o1 (centres unmarked) , please.
Reply text: 0

====

# Test system: solgum
# test: Soil treatment test for upland field
# Assay type: in vivo
# Design: key: 0: normal development; 1: Less damaged; 2: Slightly damaged; 3: Moderately damaged; 4: Severely damaged; 5: All killed
# reported conditions: 500 g/ha, glass house 25° C., 3 weeks
# Effects Solgum values compiled below
Field format: numeric only.

For orientation, consider the following solved cases.
CCC(Oc1ccc(F)c(C(F)(F)F)c1)c1nc2ccc([N+](=O)[O-])cc2o1 (centres unmarked) [Compound 39]	0
CCCC(Oc1cccc(C(F)(F)F)c1)c1nc2cc(S(C)(=O)=O)c(C)cc2o1 (centres unmarked) [Compound 489]	0
CCC(Oc1cccc(C(F)(F)F)c1)c1nc2cc(I)ccc2o1 (centres unmarked) [Compound 172]	0
CCC(Oc1ccc(F)c(C(F)(F)F)c1)c1nc2cc(C#N)c(Cl)cc2o1 (centres unmarked) [Compound 517]	0
CCC(Oc1cccc(C(F)(F)F)c1)c1nc2cc(S(C)(=O)=O)ccc2o1 (centres unmarked) [Compound 216]	0
CCC(Oc1ccc(F)c(C(F)(F)F)c1)c1nc2cc(S(C)(=O)=O)c(C)cc2o1 (centres unmarked) [Compound 487]	0
CCC(Oc1cccc(C(F)(F)F)c1)c1nc2ccc(C(F)(F)F)cc2o1 (centres unmarked) [Compound 94]	0

Let us move to another entry and its Effects Solgum.
Inquiry: Tell me the measured Effects Solgum of CCC(Oc1cccc(OC(F)(F)F)c1)c1nc2cc(C#N)ccc2o1 (centres unmarked) [Compound 396] , please.
Reply text: 3

====

# Effect Bulrush values compiled below
# Tested on: bulrush
# test: Herbicidal test for paddy field
# Type: in vivo, Scrips juncoides
# Set-up: key: 0: normal development; 1: Less damaged; 2: Slightly damaged; 3: Moderately damaged; 4: Severely damaged; 5: All killed
# reported conditions: paddy field pot, 500 g/ha dropwise at 1.5 leaf stage of barnyardgrass, 3 weeks, rank vs non-treated
# Procedure: Wagner pots, each having an area of 1/5000 are, were packed with Ube soil (alluvial soil) and planted with seeds or tubers of young rice plant, barnyardgrass, bulrush, flat sedge and monochoria. Then, the pots were filled with water to a depth of 3 cm. […] The herbicidal effects are evaluated according to the following 6 ranks as compared with non-treated district. […]
Field format: numeric only.

For orientation, consider the following solved cases.
CCCC(Oc1cccc(C#N)c1)c1nc2cc(Cl)ccc2o1 (stereo not drawn)	4
CCCC(Oc1cccc(C(F)(F)F)c1)c1nc2cc(F)c(Cl)cc2o1 (stereo not drawn)	2
CCCC(Oc1cccc(C(F)(F)F)c1)c1nc2cc(C#N)ccc2o1 (stereo not drawn)	4
CCC(Oc1cccc(OC(F)(F)F)c1)c1nc2cc(C#N)c(C#N)cc2o1 (stereo not drawn)	3
CCC(Oc1cccc(C(F)(F)F)c1)c1nc2cc(C#N)c(Cl)cc2o1 (stereo not drawn)	5
CCCC(Oc1cccc(C(F)(F)F)c1)c1nc2cc(C(F)(F)F)ccc2o1 (stereo not drawn)	2

Inquiry: Tell me the measured Effect Bulrush of CCC(Oc1cccc(C(F)(F)F)c1)c1nc2cc(C#N)c(C#N)cc2o1 (stereo not drawn) , please.
Reply text: 2

Inquiry: Tell me the measured Effect Bulrush of CCC(Oc1cccc(C(F)(F)F)c1)c1nc2ccc(Cl)cc2o1 (stereo not drawn) , please.
Reply text: 3

Inquiry: Tell me the measured Effect Bulrush of CCC(Oc1cccc(C(F)(F)F)c1)c1nc2cc(F)c(C(F)(F)F)cc2o1 (stereo not drawn) , please.
Reply text: 2

Inquiry: Tell me the measured Effect Bulrush of CCC(Oc1cccc(C(F)(F)F)c1)c1nc2cc(Cl)c(C)cc2o1 (stereo not drawn) , please.
Reply text: 4

Inquiry: Tell me the measured Effect Bulrush of CC(Oc1cccc(C(F)(F)F)c1)c1nc2cc(Cl)ccc2o1 (stereo not drawn) , please.
Reply text: 2

Inquiry: Tell me the measured Effect Bulrush of CCCC(Oc1ccc(F)c(C(F)(F)F)c1)c1nc2cc(F)c(Cl)cc2o1 (stereo not drawn) , please.
Reply text: 3

Inquiry: Tell me the measured Effect Bulrush of CCC(Oc1cccc(C#N)c1)c1nc2cc(C#N)ccc2o1 (stereo not drawn) , please.
Reply text: 5

Inquiry: Tell me the measured Effect Bulrush of CCCC(Oc1ccc(F)c(C(F)(F)F)c1)c1nc2cc(C(F)(F)F)ccc2o1 (stereo not drawn) , please.
Reply text: 5

====

# Test system: corn
# test: Foliar spread test for upland field
# Type: in vivo
# Design: key: 0: normal development; 1: Less damaged; 2: Slightly damaged; 3: Moderately damaged; 4: Severely damaged; 5: All killed
# reported conditions: foliar spray 500 ppm, 3 weeks, rank vs non-treated
# Description: (0: normal development, 1: Less damaged, 2: Slightly damaged, 3: Moderately damaged, 4: Severely damaged, 5: All killed). […] The herbicidal effects were evaluated according to the evaluation method described in the above (1).
measurement label: Effects Corn

For orientation, consider the following solved cases.
CCC(Oc1cccc(OC(F)(F)F)c1)c1nc2cc(Cl)ccc2o1 (centres unmarked)	3
CCC(Oc1ccc(Cl)c(C(F)(F)F)c1)c1nc2cc(C#N)c(Cl)cc2o1 (centres unmarked)	2
CCC(Oc1ccc(F)c(C(F)(F)F)c1)c1nc2cc(F)c(F)cc2o1 (centres unmarked)	3

Inquiry: Entry CCCC(Oc1cccc(C(F)(F)F)c1)c1nc2cc(C#N)c(Cl)cc2o1 (centres unmarked) , system corn: what Effects Corn was measured?
Reply text: 2

Inquiry: Entry CCCC(Oc1cccc(C(F)(F)F)c1)c1nc2cc(C#N)c(C#N)cc2o1 (centres unmarked) , system corn: what Effects Corn was measured?
Reply text: 2
